Value source: ChEMBL document CHEMBL1138948

- assayOverview: Exsorptive permeability across Caco-2 cell membrane
- Type: ADME, cell-based
- conditionContext: human, read-out: permeability (converted)
valueType: Papp (×10⁻⁶ cm/s)

P = OC[C@@H](O)[C@@H](O)[C@H](O)[C@H](O)CO
Q = CC(=O)N[C@H](Cc1ccccc1)C(=O)N1C[C@H](OCc2ccc3ccccc3c2)C[C@@H]1CCCN=C(N)N
R = CC(=O)N[C@@H](Cc1cnc[nH]1)C(=O)N[C@H](Cc1ccccc1)C(=O)N1C[C@H](OCc2ccc3ccccc3c2)C[C@@H]1C(=O)NCCN=C(N)N
input: Falling order of Papp, please. Record the ranking as a list of labels in the requested order.
output: Q, P, R
(Q: 6.17 ×10⁻⁶ cm/s, P: 1.83 ×10⁻⁶ cm/s, R: 0.5 ×10⁻⁶ cm/s)
